# EXPERIMENTAL SYSTEM: T1, human Y4 receptor (human, UniProt P50391 1-375)
# T1 construct: whole, on cells
# T1 sequence (P50391 whole entry): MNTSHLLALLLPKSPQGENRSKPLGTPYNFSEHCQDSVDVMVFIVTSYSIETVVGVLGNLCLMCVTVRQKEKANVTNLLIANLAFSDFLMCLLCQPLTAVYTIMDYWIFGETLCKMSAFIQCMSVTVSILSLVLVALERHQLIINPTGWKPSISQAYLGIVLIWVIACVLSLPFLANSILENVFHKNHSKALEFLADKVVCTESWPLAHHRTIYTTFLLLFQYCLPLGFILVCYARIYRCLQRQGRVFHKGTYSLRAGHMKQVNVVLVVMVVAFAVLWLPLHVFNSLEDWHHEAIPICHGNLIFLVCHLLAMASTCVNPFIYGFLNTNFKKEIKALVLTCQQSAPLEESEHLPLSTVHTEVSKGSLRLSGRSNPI
# ASSAY NAME: 125I-PYY displacement, COS-7 membranes
READOUT KIND: Ki (nM)

(P) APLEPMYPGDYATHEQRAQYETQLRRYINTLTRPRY (peptide, UniProt P06303 30-65, looked up, mature; also called PP, rat) [rat PP]
(Q) TPEQMAQYAADLRRYINMLTRPRY (peptide, UniProt P01298 42-65, looked up, range 13-36; Range counted on the mature peptide) [human PP13-36]
For P and Q , which recorded Ki is lower? Lab log: write the label of the selected item as the result.
P
